- tested system: Rap guanine nucleotide exchange factor 3 (Homo sapiens) (UniProt O95398)
- Sequence (O95398 whole entry, looked up): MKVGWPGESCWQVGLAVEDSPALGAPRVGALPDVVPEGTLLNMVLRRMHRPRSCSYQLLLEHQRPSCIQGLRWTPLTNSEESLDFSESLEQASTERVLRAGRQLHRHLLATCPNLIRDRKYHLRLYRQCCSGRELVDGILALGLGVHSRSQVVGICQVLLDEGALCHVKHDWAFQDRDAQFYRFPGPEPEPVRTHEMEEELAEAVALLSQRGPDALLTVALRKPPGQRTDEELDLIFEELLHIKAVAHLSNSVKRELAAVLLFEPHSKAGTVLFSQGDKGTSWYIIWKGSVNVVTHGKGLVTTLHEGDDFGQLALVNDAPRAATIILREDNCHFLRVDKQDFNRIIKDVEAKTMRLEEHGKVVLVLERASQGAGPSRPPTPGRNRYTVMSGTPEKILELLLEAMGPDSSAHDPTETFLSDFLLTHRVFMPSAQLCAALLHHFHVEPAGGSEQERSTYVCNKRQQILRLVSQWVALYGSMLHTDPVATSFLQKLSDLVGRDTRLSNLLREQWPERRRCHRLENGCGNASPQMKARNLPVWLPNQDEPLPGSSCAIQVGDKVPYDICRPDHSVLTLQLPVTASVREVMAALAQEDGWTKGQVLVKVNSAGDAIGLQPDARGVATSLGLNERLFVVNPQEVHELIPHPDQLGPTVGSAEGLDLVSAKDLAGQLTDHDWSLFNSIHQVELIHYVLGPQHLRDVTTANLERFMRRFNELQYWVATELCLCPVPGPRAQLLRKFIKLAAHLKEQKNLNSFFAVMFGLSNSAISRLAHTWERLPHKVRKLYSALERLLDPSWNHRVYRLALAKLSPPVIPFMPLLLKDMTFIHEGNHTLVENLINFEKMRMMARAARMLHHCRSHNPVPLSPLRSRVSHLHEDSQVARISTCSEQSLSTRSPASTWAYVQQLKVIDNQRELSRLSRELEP
- test description: Confirmatory qHTS for antagonist of cAMP-regulated guanine nucleotide exchange factor 3 (EPAC1) (AID 1645880); further: nearly all actives have a fitted effect of over 55% in size
- condition parameters: EPAC1 Rap1B-BODIPY-GDP exchange, fluorescence
Records with an inconclusive call do not appear. The source made the active and inactive calls. The call rests on the fitted dose curve; in most records, active means well fitted inhibition curve with a large enough effect; inconclusive means small, poorly fitted or top-dose-only effect; inactive means no such curve, though single readings can be large or run the other way.
Would you mind answering with one of these outcomes? active, inactive

Known results for molecules:
N#CCOC(=O)[C@H](Cc1c[nH]c2ccccc12)NS(=O)(=O)c1ccc(Cl)cc1 : active
O=C(CN1CCCCC1)Nc1cc(Cl)ccc1Oc1ccccc1 : inactive

Please turn your attention to the following entry.
Inquiry: In this assay, the call recorded for COc1ccc(Oc2ncc3nc(CCc4ccccc4)c(=O)n(CCC#N)c3n2)cc1 was what?
Reply text: inactive
